Tested on: CL 10.3
Assay: Effect on multidrug resistant cell lines, IC50 72 hours
Type: cell-based
Settings: 72 h; CL 10.3, Breast (MDR)
pIC50: −log10 of the molar value.
REPORTED_PROPERTY: pIC50

COMPOUND | pIC50
CC(C)[C@H](CO)Nc1nc(Nc2ccc(C(=O)NCCNS(=O)(=O)c3cccc4c(N(C)C)cccc34)c(Cl)c2)c2ncn(C(C)C)c2n1 | 4.35
CC(=O)O[C@H]1C(=O)[C@@]2(C)[C@H]([C@H](OC(=O)c3ccccc3)[C@]3(O)C[C@H](OC(=O)[C@H](O)[C@@H](NC(=O)c4ccccc4)c4ccccc4)C(C)=C1C3(C)C)[C@]1(OC(C)=O)CO[C@@H]1C[C@@H]2O [Paclitaxel, reference compound] | 4.32

====

System: MCF-7
Test: Cell cycle analysis by flow cytometry (propidium iodide)
Type: cell-based, human
Details: MCF-7, 24 hrs, 5 μM
REPORTED_PROPERTY: % S (%)
A number alone suffices; assume %.

COMPOUND | TEST_TARGET | % S / %
CC(C)[C@H](CO)Nc1nc(Nc2ccc(C(=O)O)c(Cl)c2)c2ncn(C(C)C)c2n1 [Purvalanol B, reference compound] | MCF-7 | 20.54

Any idea what % S was measured for CC[C@H](CO)Nc1nc(Nc2ccc(C(=O)NCCNS(=O)(=O)c3cccc4c(N(C)C)cccc34)c(Cl)c2)c2ncn(C(C)C)c2n1 [VMY-1-101] ?
10.75

Any idea what % S was measured for CC(C)[C@H](CO)Nc1nc(Nc2ccc(C(=O)NCCNS(=O)(=O)c3cccc4c(N(C)C)cccc34)c(Cl)c2)c2ncn(C(C)C)c2n1 [VMY-1-103] ?
16.26

Any idea what % S was measured for CC[C@H](CO)Nc1nc(NCc2ccccc2)c2ncn(C(C)C)c2n1 [Roscovitine, reference compound] ?
19.88

====

Tested on: MCF-7
Assay: Cell viability assay (WST-1)
Type: cell-based, human
Conditions: read-out: IC50 (concentration yielding 50% growth inhibition); MCF-7, WST-1, 48 h
REPORTED_PROPERTY: IC50

Any idea what IC50 was measured for CC(C)[C@H](CO)Nc1nc(Nc2ccc(C(=O)O)c(Cl)c2)c2ncn(C(C)C)c2n1 [Purvalanol B, reference compound] ?
> 100 µM
